Consider the following variants and their measured abundance fitness readings.
B1: Neutrophil cytosol factor 2, residues 456 to 514; numbered along this chain, P19878 (parent)
chain: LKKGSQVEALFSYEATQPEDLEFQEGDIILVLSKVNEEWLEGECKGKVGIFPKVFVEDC

# Variants of: B1
# procedure.summary: abundance fitness (aPCA) (normalised: wild type 0, dead -1); higher = more abundant; growth selection in yeast, the domain comes from the species named
# test.context: Homo sapiens
Lab note: record the figure alone, no unit after it.

For this variant ( LKKGSQVEAVFSYEATQPEDLEFQEGDIILVLSKVNEEWLEGECKGKVGIFPKVFVEDC [L10V] ), measured abundance fitness is -0.609

For this variant ( LKKGSQVEALFSYEATQPEDLEFQEGDINLVLSKVNEEWLEGECKGKVGIFPKVFVEDC [I29N] ), measured abundance fitness is -0.119

For this variant ( LKKGSQVEALFSYEATQPEDLEFQEGDIILVLSKVNEEWLEGECKGKVGIFPKVFHEDC [V56H] ), measured abundance fitness is -0.624

For this variant ( LKKGSQVEALFSYEATQPEDLEFQEGDIILVLSKVNEHWLEGECKGKVGIFPKVFVEDC [E38H] ), measured abundance fitness is -0.362

For this variant ( LKKGSQVECLFSYEATQPEDLEFQEGDIILVLSKVNEEWLEGECKGKVGIFPKVFVEDC [A9C] ), measured abundance fitness is 0.167

For this variant ( LKKGSQVEALFSYEATQPEDLEFQEGDIILVLSKVNEEWLEGECKGKVGIFPKVSVEDC [F55S] ), measured abundance fitness is -0.753

---
For this variant ( LKKGSQVEALFSYEATQPEDLEFQEGDIILVLSKVNEEWLEGECKGKVGIFPKVFVVDC [E57V] ), measured abundance fitness is -0.198
